system: thrombospondin binding to heparin; assay: Inhibition of 125I-thrombospondin binding to immobilized heparin-BSA; design: species or system human; details: free peptide
Peptide text beside a SMILES is read from it.
quantity-measured: inhibition of thrombospondin binding to heparin, in words

CC(C)[C@H](N)C(=O)N[C@H](C(=O)N[C@@H](CS)C(=O)NCC(=O)O)[C@@H](C)O [Peptide 203, VTCG] (H-VTCG-OH); inactive
CC(C)C[C@H](NC(=O)[C@H](CCCNC(=N)N)NC(=O)[C@H](CO)NC(=O)[C@H](CCCNC(=N)N)NC(=O)[C@H](CCCCN)NC(=O)[C@H](CCC(N)=O)NC(=O)[C@@H](NC(=O)CNC(=O)CNC(=O)CNC(=O)[C@H](CS)NC(=O)[C@@H](NC(=O)[C@@H](N)C(C)C)[C@@H](C)O)C(C)C)C(=O)O [Peptide 245, VTCGGGVQKRSRL] (H-VTCGGGVQKRSRL-OH); inactive

* * *

As shown below, each of these compounds has a reported pIC50 value.
Target: basic fibroblast growth factor (FGF-2) binding to heparin
Assay: Inhibition of 125I-bFGF binding to heparin-BSA conjugate
Conditions: retro-inverso peptides; read-out: IC50 for Inhibition of Binding
Protocol: Binding of ^125 I-bFGF to heparin was determined using an immobilized heparin-BSA conjugate as previously described (Guo, et al. (1992) Proc. Nat'l Acad. Sci. 89:3040-3044). ^125 I-bFGF, prepared as described by Neufeld, et al, (1985), J. Biol. Chem. 260:13860-13868, was added described above, and incubated for 2 hours at 25° C. Bound radioactivity was determined after washing and cutting the wells from the plate. […]
Square brackets hold non-standard residues; d marks the D form. Peptide text beside a SMILES is read from it.
Schema: pIC50 number; meaning minus log10 of the concentration expressed in molar units.

CC(=O)N[C@H](C)C(=O)N[C@H](C)C(=O)N[C@H](Cc1c[nH]c2ccccc12)C(=O)N[C@H](Cc1c[nH]cn1)C(=O)N[C@H](CO)C(=O)N[C@H](Cc1c[nH]c2ccccc12)C(=O)NCC(=O)N[C@H](C)C(=O)N[C@H](CCC(N)=O)C(=O)N[C@H](CCCCN)C(=O)N[C@H](Cc1ccccc1)C(=O)N[C@H](CCCNC(=N)N)C(=O)N[C@H](CCCCN)C(N)=O [Peptide 530, ri-amKRFKQAGWSHWAAac] (Ac-[dA][dA][dW][dH][dS][dW]G[dA][dQ][dK][dF][dR][dK]-NH2); 6.19
CC(=O)N[C@H](C)C(=O)N[C@H](C)C(=O)N[C@H](Cc1c[nH]c2ccccc12)C(=O)N[C@H](Cc1c[nH]cn1)C(=O)N[C@H](CO)C(=O)N[C@H](Cc1c[nH]c2ccccc12)C(=O)NCC(=O)N[C@H](C)C(=O)N[C@H](CCC(N)=O)C(=O)N[C@H](CCCCN)C(=O)N[C@H](C)C(=O)N[C@H](CCCCN)C(=O)N[C@H](CCCCN)C(N)=O [Peptide 537, ri-amKKAKQAGWSHWAAac] (Ac-[dA][dA][dW][dH][dS][dW]G[dA][dQ][dK][dA][dK][dK]-NH2); 7.00
CC(=O)N[C@H](C)C(=O)N[C@H](C)C(=O)N[C@H](Cc1c[nH]c2ccccc12)C(=O)N[C@H](Cc1c[nH]cn1)C(=O)N[C@H](CO)C(=O)N[C@H](Cc1c[nH]c2ccccc12)C(=O)NCC(=O)N[C@H](C)C(=O)N[C@H](CCC(N)=O)C(=O)N[C@H](CCCCN)C(=O)N[C@H](C)C(=O)N[C@H](CCCNC(=N)N)C(=O)N[C@H](CCCCN)C(N)=O [Peptide 529, ri-amKRAKQAGWSHWAAac] (Ac-[dA][dA][dW][dH][dS][dW]G[dA][dQ][dK][dA][dR][dK]-NH2); 6.43

Here is another compound to look at.
Can you share its pIC50? I mean this compound: CC(=O)N[C@H](C)C(=O)N[C@H](C)C(=O)N[C@H](Cc1c[nH]c2ccccc12)C(=O)N[C@H](Cc1c[nH]cn1)C(=O)N[C@H](CO)C(=O)N[C@H](Cc1c[nH]c2ccccc12)C(=O)NCC(=O)N[C@H](C)C(=O)N[C@H](CCC(N)=O)C(=O)N[C@H](CCCNC(=N)N)C(=O)N[C@H](C)C(=O)N[C@H](CCCNC(=N)N)C(=O)N[C@H](CCCCN)C(N)=O [Peptide 536, ri-amKRARQAGWSHWAAac] (Ac-[dA][dA][dW][dH][dS][dW]G[dA][dQ][dR][dA][dR][dK]-NH2) 6.02
